In this section, each of the variants is paired with its reported protein stability index.
B1: FBXO3 (parent)
chain: FIDTYSDVGRYIDHYAAIKKAWDD

- Variants of: B1
- EXPERIMENT_SUMMARY: protein stability index of a GFP-peptide fusion (GPS, HEK-293T) (PSI 1-6); higher = more stable;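 note: lentivirally expressed fusions sorted by FACS into six bins by GFP to DsRed ratio, PSI derived from sequencing read proportions per bin multiplied by bin number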
- CONDITION_INFO: c terminus: a fixed tail appended
# output: bare number, no unit

Worked set:
SEQUENCE_DATA	protein stability index
FIDTYSDVGRYIDHYAAIKAAWDD [K20A]	2.16
FIDTYSDVGRYIDHYAYIKKAWDD [A17Y]	2.6
FIDTYSDVGRYIDYYAAIKKAWDD [H14Y]	1.82
FISTYSDVGRYIDHYAAIKKAWDD [D3S]	2.06
FIDTYSDVGRYIDHYAAIKKQWDD [A21Q]	1.82

Consider the record given below.
Looking up FITTYSDVGRYIDHYAAIKKAWDD [D3T] , I found its protein stability index recorded as 1.62

Recorded values, source the supplement of paper PMC10567573.
